TESTED ON: PXR (Homo sapiens, UniProt O75469)
Sequence (O75469 1-434): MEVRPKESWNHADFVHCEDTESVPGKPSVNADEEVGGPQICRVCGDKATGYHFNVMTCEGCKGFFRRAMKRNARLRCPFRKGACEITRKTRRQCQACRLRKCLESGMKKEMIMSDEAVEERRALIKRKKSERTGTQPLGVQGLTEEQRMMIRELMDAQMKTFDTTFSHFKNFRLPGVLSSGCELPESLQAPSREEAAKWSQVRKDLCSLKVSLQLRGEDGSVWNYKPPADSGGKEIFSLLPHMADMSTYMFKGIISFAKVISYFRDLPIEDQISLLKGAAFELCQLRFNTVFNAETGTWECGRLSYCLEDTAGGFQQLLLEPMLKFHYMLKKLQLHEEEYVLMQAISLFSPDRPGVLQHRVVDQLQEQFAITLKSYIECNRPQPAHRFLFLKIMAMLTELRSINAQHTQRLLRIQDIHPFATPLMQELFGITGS
ASSAY OVERVIEW: PXR-responsive CYP3A4 promoter luciferase reporter assay in HepG2, inverse agonist mode (basal activity)
Type: cell-based
Set-up: expressed in transfected cells; host or cells: HepG2
CONDITION: compound alone, HepG2; read-out: IC50, inverse agonistic activity
OBSERVABLE: pIC50
Answers are plain numbers, as −log10 of the molar value.

Q: Lab note: PXR (Homo sapiens, UniProt O75469) assay, enter pIC50 for `NC(=O)c1cc(Cn2cc(-c3c(-c4ccc(Cl)cc4)nc4c(F)cc(F)cn34)nn2)ccc1Cl` here
A: 5.21

* * *

ASSAY OVERVIEW: Microsomal stability, mouse microsomes
Format: in vitro ADME
CONDITION: liver microsomes; mouse microsomes; read-out: Microsomal clearance CLint (μl/min/mg), mouse
Protocol: The protocols and reagents for the plasma protein binding assay and metabolic stability testing in human and mouse liver microsomes are detailed in our previous report. […] The stability of compounds was tested in human and mouse microsomes (ThermoFisher Scientific). Compounds were tested in triplicate with or without NADPH wells as a negative control for cytochrome P450 metabolism. […] Each assay included a substrate with known activity as a positive control. Time points were analyzed by LC/MS/MS. […]
OBSERVABLE: microsomal CLint at 5 μM (µL/min/mg)
One number for each entry, in µL/min/mg.

Q: State its microsomal CLint at 5 μM for this compound: NC(=O)c1cc(Cn2cc(-c3c(-c4ccc(Cl)cc4)nc4c(F)cccn34)nn2)ccc1Cl [Compound 8]
A: 168

* * *

TESTED ON: PXR (Homo sapiens, UniProt O75469)
ASSAY OVERVIEW: cell-based
CONDITION: IC50, antagonistic mode, MI891 + Rif-5 μM, rifampicin 5 μM, HepG2
OBSERVABLE: pIC50
Numbers only, as −log10 of the molar value.

Q: Lab note: PXR (Homo sapiens, UniProt O75469) assay, enter pIC50 for `NC(=O)c1cc(Cn2cc(-c3c(-c4ccc(Cl)cc4)nc4c(F)cc(F)cn34)nn2)ccc1Cl` here
A: 5.46

* * *

ASSAY OVERVIEW: Microsomal stability, human microsomes
Type: in vitro ADME
CONDITION: liver microsomes; 0.5 mg/mL human microsomes, 5 μM, up to 45 min; read-out: Microsomal stability, t1/2 (min), human
For each entry below, report its half-life at 5 μM value.

SMILES RECORD: NC(=O)c1cc(Cn2cc(-c3c(-c4ccc(Cl)cc4)nc4c(F)cc(F)cn34)nn2)ccc1Cl
RESULT: > 45 min
//
SMILES RECORD: NC(=O)c1cc(Cn2cc(-c3c(-c4ccc(Cl)cc4)nc4c(F)cccn34)nn2)ccc1Cl
RESULT: 50 min

Kindly consider the entry below.
Q: State its half-life at 5 μM for this compound: `NC(=O)c1cc(Cn2cc(-c3c(-c4ccc(Cl)cc4)nc4ccc(F)cn34)nn2)ccc1Cl`
A: 55 min

* * *

TESTED ON: human CAR LBD (Homo sapiens, UniProt Q14994)
ASSAY OVERVIEW: LanthaScreen TR-FRET CAR Coactivator assay
Format: biochemical
CONDITION: nb = no binding
Sequence (Q14994 103-352): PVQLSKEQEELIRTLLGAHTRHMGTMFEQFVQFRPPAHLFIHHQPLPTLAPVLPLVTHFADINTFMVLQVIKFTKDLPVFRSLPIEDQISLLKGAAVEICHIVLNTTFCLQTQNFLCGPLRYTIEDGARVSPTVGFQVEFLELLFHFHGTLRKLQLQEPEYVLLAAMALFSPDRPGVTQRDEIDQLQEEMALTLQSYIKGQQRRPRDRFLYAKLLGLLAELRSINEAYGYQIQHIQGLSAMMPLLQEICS
OBSERVABLE: EC50 (nM)
Numbers only, in nM.

SMILES RECORD: CNC(=O)c1cc(Cc2nnc(-c3c(-c4ccc(Cl)cc4)nc4ccccn34)o2)ccc1Cl
UNIT DESCRIPTOR: nM
EC50: 401

Kindly consider the entry below.
Q: State its EC50 for this compound: `CNC(=S)c1cc(Cc2nnc(-c3c(-c4ccc(Cl)cc4)nc4ccccn34)o2)ccc1Cl`
A: 162

* * *

For each entry below, report its pEC50 value.
TESTED ON: human CAR LBD (Homo sapiens)
Construct: constructs encoding helices 3–12 and helix 1 of human CAR LBD; expressed in transfected cells; host or cells: HepG2
ASSAY OVERVIEW: CAR LBD assembly assay (CAR AA)
Assay type: cell-based
CONDITION: na = no activity; tox = cytotoxicity in HepG2 cells
Sequence (Q14994 103-150 limits assumed): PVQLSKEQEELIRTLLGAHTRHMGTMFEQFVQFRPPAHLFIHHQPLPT
Sequence (Q14994 151-348 isoform Q14994-2 limits assumed): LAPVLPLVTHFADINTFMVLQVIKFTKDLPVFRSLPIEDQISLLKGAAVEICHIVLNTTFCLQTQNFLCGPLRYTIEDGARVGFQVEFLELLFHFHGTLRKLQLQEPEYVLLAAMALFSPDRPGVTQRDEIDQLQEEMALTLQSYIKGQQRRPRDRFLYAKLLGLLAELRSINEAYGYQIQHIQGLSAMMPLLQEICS
Answers are plain numbers, as −log10 of the molar value.

COMPOUND: NC(=O)c1cc(Cn2cc(-c3c(-c4ccc(Cl)cc4)nc4c(F)cccn34)nn2)ccc1Cl
pEC50: 5.38
--
COMPOUND: CN(C)C(=O)c1cc(Cc2nnc(-c3c(-c4ccc(Cl)cc4)nc4ccccn34)s2)ccc1Cl
pEC50: 6.30
--
COMPOUND: CC(c1ccc(Cl)c(C(N)=O)c1)n1cc(-c2c(-c3ccc(Cl)cc3)nc3ccccn23)nn1 (centres unmarked)
pEC50: 5.28
--
COMPOUND: CNC(=S)c1cc(Cc2nnc(-c3c(-c4ccc(Cl)cc4)nc4ccccn34)o2)ccc1Cl
pEC50: 6.00

Kindly consider the entry below.
Q: State its pEC50 for this compound: `CNC(=O)c1cc(Cc2nnc(-c3c(-c4ccc(Cl)cc4)nc4ccccn34)o2)ccc1Cl`
A: 5.99

* * *

ASSAY OVERVIEW: Plasma stability, human plasma
Format: in vitro ADME
CONDITION: up to 120 min, read-out: Plasma stability, t1/2 (min), human
For each entry below, report its half-life value.

The examples below pair each entry with its known result.
COMPOUND: NC(=O)c1cc(Cn2cc(-c3c(-c4ccc(Cl)cc4)nc4c(F)cccn34)nn2)ccc1Cl [Compound 8]
OBSERVABLE: half-life
RESULT: > 120 min
--
COMPOUND: NC(=O)c1cc(Cn2cc(-c3c(-c4ccc(Cl)cc4)nc4ccc(F)cn34)nn2)ccc1Cl [Compound 10]
OBSERVABLE: half-life
RESULT: > 120 min

Q: State its half-life for this compound: NC(=O)c1cc(Cn2cc(-c3c(-c4ccc(Cl)cc4)nc4c(F)cc(F)cn34)nn2)ccc1Cl [Compound 11]
A: > 120 min

* * *

TESTED ON: UniProt:O75469
ASSAY OVERVIEW: Microscale thermophoresis (MST)
CONDITION: COS-1 cell lysate expressing PXR-eGFP
OBSERVABLE: pKd
Answers are plain numbers, as −log10 of the molar value.

Q: State its pKd for this compound: `NC(=O)c1cc(Cn2cc(-c3c(-c4ccc(Cl)cc4)nc4c(F)cc(F)cn34)nn2)ccc1Cl`
A: 5.77

* * *

ASSAY OVERVIEW: Plasma stability, mouse plasma
Format: in vitro ADME
CONDITION: up to 120 min, read-out: Plasma stability, t1/2 (min), mouse
For each entry below, report its half-life value.

I need half-life for every entry listed below, if you could help.
1. CC(C)[N+](C)(CCOC(=O)C1c2ccccc2Oc2ccccc21)C(C)C [Propantheline, reference compound]
2. NC(=O)c1cc(Cn2cc(-c3c(-c4ccc(Cl)cc4)nc4c(F)cc(F)cn34)nn2)ccc1Cl [Compound 11]
3. NC(=O)c1cc(Cn2cc(-c3c(-c4ccc(Cl)cc4)nc4ccc(F)cn34)nn2)ccc1Cl [Compound 10]
4. NC(=O)c1cc(Cn2cc(-c3c(-c4ccc(Cl)cc4)nc4c(F)cccn34)nn2)ccc1Cl [Compound 8]

A:
1: 28 min; 2: > 120 min; 3: > 120 min; 4: > 120 min

* * *

TESTED ON: PXR (Homo sapiens, UniProt O75469)
ASSAY OVERVIEW: cell-based
CONDITION: PXR antagonism: PXR inhibition (IC50, μM), antagonist mode with 10 μM rifampicin; mean ± SD, n = 3
Checkbox rule: IC50 lower than 6 µM = TRUE; IC50 not lower than 6 µM = FALSE.

Look over these answered cases.
COMPOUND: CC(c1ccc(Cl)c(C(N)=O)c1)n1cc(-c2c(-c3ccc(Cl)cc3)nc3ccccn23)nn1 (stereo not drawn)
LABEL CLASS: FALSE
--
COMPOUND: NC(=O)c1cc(Cn2cc(-c3c(-c4ccncc4)nc4ccccn34)nn2)ccc1Cl
LABEL CLASS: FALSE
--
COMPOUND: NC(=O)c1cc(Cn2cc(-c3c(-c4ccc(Cl)cc4)nc4c(F)cccn34)nn2)ccc1Cl
LABEL CLASS: FALSE
--
COMPOUND: NC(=O)c1cc(Cn2cc(-c3c(-c4ccc(Cl)cc4)nc4ccc(F)cn34)nn2)ccc1Cl
LABEL CLASS: FALSE
--
COMPOUND: CNC(=O)c1cc(Cn2cc(-c3c(-c4ccc(Cl)cc4)nc4c(F)cc(F)cn34)nn2)ccc1Cl
LABEL CLASS: FALSE
--
COMPOUND: NC(=O)c1cc(Cn2cc(-c3c(-c4ccc(C5CC5)cc4)nc4ccccn34)nn2)ccc1Cl
LABEL CLASS: TRUE
--
COMPOUND: CNC(=O)c1cc(Cc2nnc(-c3c(-c4ccc(Cl)cc4)nc4ccccn34)o2)ccc1Cl
LABEL CLASS: FALSE
--
COMPOUND: CN(C)C(=O)c1cc(Cc2nnc(-c3c(-c4ccc(Cl)cc4)nc4ccccn34)s2)ccc1Cl
LABEL CLASS: TRUE

Q: Is IC50 strictly under 6 µM for the entry `CNC(=S)c1cc(Cc2nnc(-c3c(-c4ccc(Cl)cc4)nc4ccccn34)o2)ccc1Cl` ?
A: FALSE
